TGI listing for selected compounds.
- Tested on: UO-31 renal
- procedure_text: NCI tumour cell line growth inhibition, 48 h

>  <compound>
Cc1[nH]n(-c2nc(O)c(C)c(=O)[nH]2)c(=O)c1CCO

>  <target>
UO-31 renal

>  <TGI>
> 100 µM

$$$$
>  <compound>
CC(C)(C)C(=O)C(c1ccc(-c2cscn2)cc1)c1ccc(-c2cscn2)cc1

>  <target>
UO-31 renal

>  <TGI>
> 81.9 µM

$$$$
>  <compound>
CSCCCNC(=O)c1csc([C@@H](CSC)NC(=O)CCNC(=O)[C@@H](NC(=O)OCC(Br)(Br)Br)C(C)O)n1 (stereo not given in full)

>  <target>
UO-31 renal

>  <TGI>
> 100 µM

$$$$
>  <compound>
OCC1CCCCN1Cc1nc2ccc(Cl)cc2[nH]1 (stereo not given)

>  <target>
UO-31 renal

>  <TGI>
> 100 µM

$$$$
>  <compound>
CCOc1cc2ncc(C#N)c(Nc3ccc(F)c(Cl)c3)c2cc1NC(=O)/C=C/CN(C)C

>  <target>
UO-31 renal

>  <TGI>
> 3.46 µM

$$$$

###

- Test system: HOP-92 NSCLC
- procedure_text: NCI tumour cell line growth inhibition, 48 h
TGI listing for selected compounds.

>  <compound>
CN(C)CCCn1c2c3ccccc3ccc2c2oc(=O)c3ccccc3c21

>  <unit_descriptor>
µM

>  <limit_qualifier>
=

>  <TGI>
45.7

$$$$
>  <compound>
CCCCN(CCCC)c1ccc(N=Nc2ccc(S(=O)(=O)O)cc2)cc1

>  <unit_descriptor>
µM

>  <limit_qualifier>
=

>  <TGI>
22.1

$$$$
>  <compound>
CC1C=C(NCC2(CO)CCC2)NC(N)=N1 (stereo unspecified)

>  <unit_descriptor>
µM

>  <limit_qualifier>
>

>  <TGI>
100

$$$$
>  <compound>
O=C(Nc1ccncc1)C(=O)c1cn(S(=O)(=O)c2ccccc2F)c2ccccc12

>  <unit_descriptor>
µM

>  <limit_qualifier>
=

>  <TGI>
60.2

$$$$
>  <compound>
COc1cc2cnc3c(c2cc1OC)Cc1cc2c(cc1-3)OCO2

>  <unit_descriptor>
µM

>  <limit_qualifier>
>

>  <TGI>
100

$$$$
>  <compound>
N#CSCC1CC(O)(c2ccccc2)C(c2ccccc2)C(c2ccc(F)cc2)O1 (stereo unspecified)

>  <unit_descriptor>
µM

>  <limit_qualifier>
=

>  <TGI>
7.88

$$$$
>  <compound>
Cc1ccnc2c1c(=O)c1ccccc1n2C

>  <unit_descriptor>
µM

>  <limit_qualifier>
>

>  <TGI>
100

$$$$
>  <compound>
Fc1ccc(-c2nnc3sc(-c4cccc(Cl)c4)nn23)cc1Cl

>  <unit_descriptor>
µM

>  <limit_qualifier>
=

>  <TGI>
89.6

$$$$
>  <compound>
COc1cccc2c1C(=O)c1ccc3cc(CO)cc(O)c3c1C2=O

>  <unit_descriptor>
µM

>  <limit_qualifier>
=

>  <TGI>
2.84

$$$$
>  <compound>
c1ccc2c(Cc3c[nH]c4ccccc34)c[nH]c2c1

>  <unit_descriptor>
µM

>  <limit_qualifier>
=

>  <TGI>
35.6

$$$$
>  <compound>
Cc1cc2c(c(C#N)c1C)NC(=O)C(CC(=O)O)C2=O (stereo unspecified)

>  <unit_descriptor>
µM

>  <limit_qualifier>
>

>  <TGI>
100

$$$$
